Each item that follows carries a reported log10 of Activity.
assay: Antioxidant activity assessed as trolox equivalent of AAPH radical scavenging activity at 1 uM preincubated for 15 mins followed by AAPH addition measured every min for 90 mins by ORAC-FL assay; format: functional
Lab note - Activity converted to log10 from values in µMequiv/µM.

>>> print(df.to_string())
                                   compound  result_value
0  CCCCCCC1OC(=O)c2cc(-n3nc(C(F)(F)F)cc3O)ccc21 (stereo not given)          0.36
1  CCCCCC1OC(=O)c2cc(-n3nc(C(F)(F)F)cc3O)ccc21 (stereo not given)          0.37

Kindly note the recorded log10 of Activity for CCCCC1OC(=O)c2ccccc21 (racemic) [RAC-3-N-BUTYLPHTHALIDE] , which is -0.68

// recorded log10 of Activity for CCCCCC1OC(=O)c2cc(N3N=C(C)CC3=O)ccc21 (stereo not given) : -0.21
